- Test system: translation of luciferase RNA in rabbit reticulocyte lysate
- Measurement Description: Translation of a luciferase RNA reporter in rabbit reticulocyte lysate
- Type: biochemical
- Set-up: key: “+++” vs. “++” vs. “+” in general denotes ˜4-fold differences in potency; “+++” vs. “++” vs. “+” in general denotes ˜4-fold differences in potency; “+++” vs. “++” vs. “+” in general denotes ˜4-fold differences in potency; “−” denotes no activity at any dose tested, up to 1000× the effective dose of halofuginone
- Assay Setup: luciferase RNA reporter
Value Kind: Translational inhibition

INSERT INTO assay_data (molecule, result) VALUES
  ('O=C(CC1NCCCC1O)Cn1cnc2cc(Br)c(Cl)cc2c1=O (centres unmarked)', '+++'),
  ('CC(C)(C)OC(=O)N1CCCC(O)C1CC(=O)Cn1cnc2cc(Br)c(Cl)cc2c1=O (centres unmarked)', '−'),
  ('CCOP(=O)(OCC)OC1CCCNC1CC(=O)Cn1cnc2cc(Br)c(Cl)cc2c1=O (centres unmarked)', '−'),
  ('CC(=O)N/N=C(/CC1NCCCC1O)Cn1cnc2cc(Br)c(Cl)cc2c1=O (centres unmarked)', '++'),
  ('COC(=O)CCCCC(=O)N/N=C(/CC1NCCCC1O)Cn1cnc2cc(Br)c(Cl)cc2c1=O (centres unmarked)', '++'),
  ('C#Cc1cc2ncn(CC(=O)CC3NCCCC3O)c(=O)c2cc1Cl (centres unmarked)', '+++'),
  ('O=C(CC1NCCCC1O)Cn1cnc2ccccc2c1=O (centres unmarked)', '++'),
  ('NCCOCCOCCNC(=O)CCCC#Cc1cc2ncn(CC(=O)CC3NCCCC3O)c(=O)c2cc1Cl (centres unmarked)', '+');
